Data origin: ChEMBL document CHEMBL1153722

# testedOn: geranylgeranyltransferase type-I (Rattus norvegicus)
# assayName: Inhibition of rat recombinant GGTase-1 by SDS-PAGE end point assay
propertyLabel: IC50 (µM)

>>> print(df.to_string())
                             chemicalsmiles  reportedresult
0  O=C(CNC(=O)c1coc(-c2ccccc2)n1)N[C@@H](Cc1ccccc1)C(=O)N[C@@H](Cc1cn(C(c2ccccc2)(c2ccccc2)c2ccccc2)cn1)C(=O)O             5.6
1  O=C(CNC(=O)[C@H](Cc1cn(C(c2ccccc2)(c2ccccc2)c2ccccc2)cn1)NC(=O)c1coc(-c2ccccc2)n1)N[C@@H](Cc1c[nH]cn1)C(=O)O             2.6

I = CCCCCCCC(=O)N[C@@H](Cc1c[nH]cn1)C(=O)N[C@@H](Cc1ccccc1)C(=O)N[C@@H](Cc1ccc(O)cc1)CN(C)CCc1ccccn1
II = O=C(CNC(=O)[C@H](Cc1c[nH]cn1)NC(=O)c1coc(-c2ccccc2)n1)N[C@@H](Cc1cn(C(c2ccccc2)(c2ccccc2)c2ccccc2)cn1)C(=O)O
Lookup: Between these two entries, I and II , state which has the higher IC50. Use the label to indicate which entry you chose.
Found: I
